The values you see were collected from ChEMBL document CHEMBL1961873.

# Experimental System: Phosphorylase b kinase gamma catalytic chain, skeletal muscle/heart isoform (Homo sapiens) (UniProt Q16816);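 also: values are averaged percent inhibition of PHKG1 kinase activity, from the GSK PKIS inhibitor-set screen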
# Sequence (Q16816 whole entry, looked up, canonical isoform): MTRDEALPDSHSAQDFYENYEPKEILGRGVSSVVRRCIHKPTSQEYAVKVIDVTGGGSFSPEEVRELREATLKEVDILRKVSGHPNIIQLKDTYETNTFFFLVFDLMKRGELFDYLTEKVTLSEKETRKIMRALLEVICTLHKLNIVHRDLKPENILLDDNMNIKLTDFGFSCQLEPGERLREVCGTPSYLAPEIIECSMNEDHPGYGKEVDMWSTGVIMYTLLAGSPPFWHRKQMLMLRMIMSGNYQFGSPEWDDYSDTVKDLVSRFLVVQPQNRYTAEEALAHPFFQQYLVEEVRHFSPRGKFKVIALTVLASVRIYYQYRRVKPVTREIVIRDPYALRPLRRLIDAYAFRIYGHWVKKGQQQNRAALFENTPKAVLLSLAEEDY
# Experimental Parameters: at 0.1 µM
Exercise: state measured inhibition for each of the molecules provided.
Field: numeric (%). Do not append units.

Please give the measured inhibition for this molecule: O=C(O[C@H]1CN[C@H](C#Cc2cc3ncnc(Nc4ccc(OCc5cccc(F)c5)c(Cl)c4)c3s2)C1)N1CCOCC1 6.72

Please give the measured inhibition for this molecule: Fc1ccc(Nc2nccc(-c3c(-c4ccc(C(F)(F)F)cc4)nn4ncccc34)n2)cc1F -0.56

Please give the measured inhibition for this molecule: CS(=O)(=O)CCNCc1ccc(-c2ccc3ncnc(Nc4ccc(OCc5ccccc5)cc4)c3c2)o1 4.83

----------
Exercise: state measured inhibition for each of the molecules provided.
# Experimental System: Tyrosine-protein kinase BTK (Homo sapiens) (UniProt Q06187);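 also: values are mean percent inhibition of BTK across replicate measurements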
# Sequence (Q06187 whole entry): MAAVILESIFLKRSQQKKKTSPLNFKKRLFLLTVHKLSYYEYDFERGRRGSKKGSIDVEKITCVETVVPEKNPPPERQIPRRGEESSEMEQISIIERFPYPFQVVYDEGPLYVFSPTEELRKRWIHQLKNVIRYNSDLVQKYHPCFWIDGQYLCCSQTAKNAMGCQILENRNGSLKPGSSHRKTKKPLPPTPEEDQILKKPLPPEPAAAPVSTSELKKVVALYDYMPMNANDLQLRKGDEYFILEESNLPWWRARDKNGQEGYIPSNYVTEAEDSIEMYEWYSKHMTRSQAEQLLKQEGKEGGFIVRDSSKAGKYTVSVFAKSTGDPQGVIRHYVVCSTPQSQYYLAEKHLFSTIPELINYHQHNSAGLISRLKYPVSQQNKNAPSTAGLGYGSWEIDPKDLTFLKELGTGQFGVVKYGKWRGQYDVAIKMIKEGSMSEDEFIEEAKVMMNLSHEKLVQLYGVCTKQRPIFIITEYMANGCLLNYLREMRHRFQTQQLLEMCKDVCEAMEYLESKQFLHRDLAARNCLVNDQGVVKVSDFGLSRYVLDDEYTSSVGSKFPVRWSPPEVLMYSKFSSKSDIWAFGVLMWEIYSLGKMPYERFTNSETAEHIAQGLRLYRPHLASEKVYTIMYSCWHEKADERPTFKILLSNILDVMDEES
# Experimental Parameters: at 1 µM
Field: numeric (%). Do not append units.

Please give the measured inhibition for this molecule: CC1(C)CC(n2cnc(-c3ccc(F)cc3)c2-c2ccnc(N)n2)CC(C)(C)N1 -1.35

Please give the measured inhibition for this molecule: COc1cc2c(cc1Nc1nc(Nc3cccc(F)c3C(N)=O)c3cc[nH]c3n1)N(C(=O)CN1CCN(C(C)C)CC1)CC2 -1.36

Please give the measured inhibition for this molecule: CCn1c(-c2nonc2N)nc2cncc(C(=O)NCCNC)c21 0.11

Please give the measured inhibition for this molecule: N#Cc1cccc(Nc2ncc(-c3ccccc3)o2)c1 -0.7

Please give the measured inhibition for this molecule: O=C(O[C@H]1CN[C@H](C#Cc2cc3ncnc(Nc4ccc(OCc5cccc(F)c5)c(Cl)c4)c3s2)C1)N1CCOCC1 -0.33

Please give the measured inhibition for this molecule: CNC(=O)c1cncc(/C=C/c2ccccc2C)c1 1.29

Please give the measured inhibition for this molecule: Cn1c(-c2nonc2N)nc2cnccc21 0.33

Please give the measured inhibition for this molecule: CS(=O)(=O)Nc1ccc(-c2cc(-c3ccccc3)cc(C(N)=O)c2N)cc1 -2.03

Please give the measured inhibition for this molecule: COc1ccc2ncn(-c3cc(O[C@H](C)c4ccccc4C(F)(F)F)c(C(N)=O)s3)c2c1 -0.74

Please give the measured inhibition for this molecule: c1cnn2ncc(-c3ccnc(NCCCN4CCOCC4)n3)c2c1 -2.44

Please give the measured inhibition for this molecule: c1ccc(-c2n[nH]cc2-c2ccnc(-c3ccc(OCCn4ccnc4)cc3)c2)nc1 -1.64

Please give the measured inhibition for this molecule: Cc1cc(O)cc(C)c1/C=C/c1cncc(C(N)=O)c1 2.64

----------
# Experimental System: Serine/threonine-protein kinase PAK 3 (Homo sapiens);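 also: mean percent inhibition of PAK3, measured in a screen of the GSK published kinase inhibitor set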
# Experimental Parameters: at 0.1 µM
Exercise: state measured inhibition for each of the compounds provided.
Field: numeric (%). Do not append units.

Please give the measured inhibition for this compound: CNC(=O)c1ncccc1Nc1nc(Nc2cc3c(cc2OC)CCCN3C(=O)CN(C)C)nc2[nH]ccc12 4.29

Please give the measured inhibition for this compound: NC(=O)c1ccc2c(-c3ccnc(NCCCO)n3)c(-c3ccc(F)cc3)nn2c1 4.61

Please give the measured inhibition for this compound: CNC(=O)c1cncc(/C=C/c2ccccc2C)c1 4.95

Please give the measured inhibition for this compound: Cc1cc(O)cc(C)c1/C=C/c1cncc(C(=O)OC(C)(C)C)c1 2.25

Please give the measured inhibition for this compound: COc1cccc(Nc2nccc(-c3cnn4ncccc34)n2)c1 1.1

Please give the measured inhibition for this compound: CCCNc1cccc(-n2ncc3c(N/N=C/c4ccncc4)ncnc32)c1 1.59

Please give the measured inhibition for this compound: CS(=O)(=O)CCNCc1ccc(-c2ccc3ncnc(Nc4ccc(OCc5cccc(C(F)(F)F)c5)cc4)c3c2)o1 5.6
